Data provenance: patent US10259810B2

Listing: pEC50 of selected molecules
# targetOrSystem: ΔF508-CFTR (Homo sapiens, UniProt P13569, DEL508-508)
# Construct: host or cells: CFBE41o-, doxycycline-inducible
# Sequence (P13569 with tags, fused parts or gaps DEL508-508): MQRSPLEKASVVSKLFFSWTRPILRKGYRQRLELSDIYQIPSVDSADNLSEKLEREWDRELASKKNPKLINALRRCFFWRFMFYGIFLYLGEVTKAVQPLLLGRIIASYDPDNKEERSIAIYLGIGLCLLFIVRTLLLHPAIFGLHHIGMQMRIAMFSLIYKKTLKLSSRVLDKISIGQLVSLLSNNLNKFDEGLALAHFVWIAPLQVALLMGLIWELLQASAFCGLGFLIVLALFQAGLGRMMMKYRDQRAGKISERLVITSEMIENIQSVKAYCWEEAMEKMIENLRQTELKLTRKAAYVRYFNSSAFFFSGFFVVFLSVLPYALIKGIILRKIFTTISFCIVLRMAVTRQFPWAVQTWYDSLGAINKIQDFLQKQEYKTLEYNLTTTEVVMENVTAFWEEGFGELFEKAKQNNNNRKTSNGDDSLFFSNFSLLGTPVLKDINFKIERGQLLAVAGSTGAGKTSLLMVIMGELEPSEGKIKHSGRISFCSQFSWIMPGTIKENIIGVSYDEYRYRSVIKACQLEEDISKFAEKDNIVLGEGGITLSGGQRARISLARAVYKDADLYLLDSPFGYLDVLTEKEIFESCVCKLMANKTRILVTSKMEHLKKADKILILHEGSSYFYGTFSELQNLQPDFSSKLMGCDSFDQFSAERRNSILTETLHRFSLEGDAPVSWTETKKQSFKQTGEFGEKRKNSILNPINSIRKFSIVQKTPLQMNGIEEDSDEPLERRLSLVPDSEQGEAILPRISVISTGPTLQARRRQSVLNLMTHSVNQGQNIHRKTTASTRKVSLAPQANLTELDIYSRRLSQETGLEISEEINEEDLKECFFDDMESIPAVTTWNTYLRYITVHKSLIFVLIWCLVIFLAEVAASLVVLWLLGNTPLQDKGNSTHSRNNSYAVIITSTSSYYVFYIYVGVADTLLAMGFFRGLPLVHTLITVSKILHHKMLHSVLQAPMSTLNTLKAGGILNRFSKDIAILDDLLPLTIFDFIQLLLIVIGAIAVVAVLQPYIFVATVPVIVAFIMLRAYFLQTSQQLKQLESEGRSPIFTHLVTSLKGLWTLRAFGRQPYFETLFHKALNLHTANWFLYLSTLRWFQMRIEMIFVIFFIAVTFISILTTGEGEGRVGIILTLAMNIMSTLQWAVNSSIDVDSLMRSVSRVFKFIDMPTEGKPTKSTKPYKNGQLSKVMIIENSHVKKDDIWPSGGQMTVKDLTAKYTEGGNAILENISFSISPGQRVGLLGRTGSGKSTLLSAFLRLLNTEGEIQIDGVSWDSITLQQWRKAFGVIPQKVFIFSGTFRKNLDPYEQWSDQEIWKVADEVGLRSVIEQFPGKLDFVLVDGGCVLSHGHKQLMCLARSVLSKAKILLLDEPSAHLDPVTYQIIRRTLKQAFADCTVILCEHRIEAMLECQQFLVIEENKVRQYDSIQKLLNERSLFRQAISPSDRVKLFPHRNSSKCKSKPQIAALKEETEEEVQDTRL
# procedureDetails: CFTR cell surface levels using HRP-tagged ΔF508-CFTR expressing CFBE cells, in the presence of a co-corrector
# Assay type: cell-based
# conditionSet: HRP-tagged ΔF508-CFTR CFBE cells, in the presence of 3 μM co-corrector; read-out: EC50
// field semantics: pEC50 = negative decimal log of concentration (mol/L)

Solved cases below.
                                   molecule                            targetorsystem  measuredendpoint  measuredvalue
0  CS(=O)(=O)NC(=O)c1cc(OCC2CCCCC2)c2c(C3CCC3)nn(-c3ccccc3)c2n1  ΔF508-CFTR (Homo sapiens, UniProt P13569, DEL508-508)             pEC50           6.36
1  CC(C)Oc1nn(-c2ccccc2)c2nc(C(=O)NS(C)(=O)=O)cc(-c3ccc(N4CCOCC4)cc3)c12  ΔF508-CFTR (Homo sapiens, UniProt P13569, DEL508-508)             pEC50           6.51
2  CC(=O)Nc1ccc(-c2cc(C(=O)NS(C)(=O)=O)nc3c2c(C(C)C)nn3C2CCCCC2)cc1  ΔF508-CFTR (Homo sapiens, UniProt P13569, DEL508-508)             pEC50           6.26
3  Cc1nn(-c2cccc(C(F)(F)F)c2)c2nc(C(=O)NS(C)(=O)=O)cc(-c3ccc(N4CCOCC4)nc3)c12  ΔF508-CFTR (Homo sapiens, UniProt P13569, DEL508-508)             pEC50           6.18
4  CC(=O)N1CCC(COc2cc(C(=O)NS(C)(=O)=O)nc3c2c(C(C)C)nn3-c2ccc(F)cc2)CC1  ΔF508-CFTR (Homo sapiens, UniProt P13569, DEL508-508)             pEC50           6.30
5  COCC1CCN(c2cc(C(=O)NS(=O)(=O)CCCN3CCCC3)nc3c2c(C(C)C)nn3-c2ccc(F)cc2)CC1  ΔF508-CFTR (Homo sapiens, UniProt P13569, DEL508-508)             pEC50           6.23

Query block: Need pEC50, item CCS(=O)(=O)NC(=O)c1cc(-c2ccc(N3CCOCC3)nc2)c2c(C)nn(C3CCCCC3)c2n1
Result block: 5.94

====

# targetOrSystem: ΔF508-CFTR (Homo sapiens, UniProt P13569, DEL508-508)
# Construct: host or cells: CFBE41o-, doxycycline-inducible
# procedureDetails: CFTR cell surface levels using HRP-tagged ΔF508-CFTR expressing CFBE cells, intrinsic corrector capacity
# Type: cell-based
# conditionSet: HRP-tagged ΔF508-CFTR expressing CFBE41o- cells; compound alone (intrinsic corrector capacity); 20 hours at 33° C.; read-out: EC50
# Excerpt: Measuring CFTR Cell Surface Levels Using HRP-Tagged ΔF508-CFTR Expressing CFBE Cells The HRP-tagged ΔF508-CFTR cell assay measures the expression of CFTR-ΔF508 at the plasma membrane. […] When HRP-tagged ΔF508-CFTR is present at the plasma membrane, the HRP enzyme activity can be measured. The amount of CFTR-ΔF508 that can be rescued to the plasma membrane is correlated with the amount of functional enzyme that can be measured. […]
The reader will find reported pEC50 values listed item by item below.
pEC50 here: minus log base 10 of the concentration, concentration in moles per litre.

Known results for compounds:
In [3]: df
Out[3]:
                                   molecule  measuredvalue
0  CS(=O)(=O)NC(=O)c1cc(N2CCC(N3CCOCC3)CC2)c2c(C3CCC3)nn(-c3cccc(C(F)(F)F)c3)c2n1           6.92
1  COCCN(C)S(=O)(=O)NC(=O)c1cc(N2CCC(N3CCOCC3)CC2)c2c(C3CCC3)nn(-c3ccc(F)cc3)c2n1           6.64
2  Cc1nn(-c2cccc(OC(F)(F)F)c2)c2nc(C(=O)NS(C)(=O)=O)cc(-c3ccc(N4CCOCC4)cc3)c12           6.09

Query block: For CS(=O)(=O)NC(=O)c1cc(OCCCN2CCOCC2)c2c(C3CCC3)nn(-c3ccccc3)c2n1 , what is its reported pEC50?
Result block: 6.34
